Attribution: ChEMBL document CHEMBL1201862

# TARGET: Rho-associated protein kinase 1 (Homo sapiens, UniProt Q13464);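 also: measured within a broad kinome-wide panel profiling many kinases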
# Sequence (Q13464 whole entry): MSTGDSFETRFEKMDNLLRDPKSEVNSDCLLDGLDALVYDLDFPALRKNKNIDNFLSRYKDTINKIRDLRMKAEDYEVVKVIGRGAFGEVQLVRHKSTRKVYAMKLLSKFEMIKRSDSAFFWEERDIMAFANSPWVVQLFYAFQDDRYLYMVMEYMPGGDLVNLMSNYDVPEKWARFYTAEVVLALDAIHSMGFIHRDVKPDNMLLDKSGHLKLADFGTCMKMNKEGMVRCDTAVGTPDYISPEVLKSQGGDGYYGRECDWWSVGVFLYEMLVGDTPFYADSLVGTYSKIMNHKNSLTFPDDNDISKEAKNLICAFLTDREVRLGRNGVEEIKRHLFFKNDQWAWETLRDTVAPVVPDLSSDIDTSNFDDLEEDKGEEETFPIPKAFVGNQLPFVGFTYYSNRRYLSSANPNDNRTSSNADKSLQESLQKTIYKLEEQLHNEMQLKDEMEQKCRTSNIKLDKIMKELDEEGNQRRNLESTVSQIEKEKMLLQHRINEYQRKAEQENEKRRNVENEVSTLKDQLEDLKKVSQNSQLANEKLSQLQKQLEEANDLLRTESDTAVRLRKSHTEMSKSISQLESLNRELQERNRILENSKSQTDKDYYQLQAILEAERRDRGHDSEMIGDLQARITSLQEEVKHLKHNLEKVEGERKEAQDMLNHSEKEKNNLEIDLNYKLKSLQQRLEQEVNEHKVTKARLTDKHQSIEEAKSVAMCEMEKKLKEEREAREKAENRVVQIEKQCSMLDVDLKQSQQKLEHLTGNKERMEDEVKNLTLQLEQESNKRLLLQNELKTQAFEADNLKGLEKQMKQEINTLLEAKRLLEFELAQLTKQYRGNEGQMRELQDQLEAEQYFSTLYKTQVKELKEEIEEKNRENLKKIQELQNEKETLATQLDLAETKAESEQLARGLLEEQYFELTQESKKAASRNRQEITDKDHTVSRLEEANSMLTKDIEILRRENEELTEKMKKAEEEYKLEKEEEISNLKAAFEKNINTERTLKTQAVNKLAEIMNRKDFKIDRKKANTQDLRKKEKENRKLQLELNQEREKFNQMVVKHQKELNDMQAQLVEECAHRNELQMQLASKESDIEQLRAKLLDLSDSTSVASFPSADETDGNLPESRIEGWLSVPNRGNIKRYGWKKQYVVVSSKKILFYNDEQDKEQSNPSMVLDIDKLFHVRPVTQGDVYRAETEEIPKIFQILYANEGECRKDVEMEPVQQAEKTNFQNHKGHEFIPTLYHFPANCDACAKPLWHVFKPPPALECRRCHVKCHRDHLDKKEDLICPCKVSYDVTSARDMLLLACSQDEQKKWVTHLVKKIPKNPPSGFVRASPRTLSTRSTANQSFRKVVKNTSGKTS
# Type: functional
Calls of active or inactive are those of the source.
Outcome codes: true for active, false for inactive

- SMILES REPR: "O=C(Nc1cccc(C(F)(F)F)n1)Nc1ccnc2cc(Cl)ccc12"
  DISCRETE LABEL: "false"
- SMILES REPR: "O=c1[nH]c2cc(Br)cnc2[nH]1"
  DISCRETE LABEL: "true"
- SMILES REPR: "O=C(Nc1cccc(C(F)(F)F)n1)Nc1ccnc2cc(OC(F)F)ccc12"
  DISCRETE LABEL: "false"
